SYSTEM NAME: C. difficile toxin A from strain VPI10463 (ATCC 43255), toxinotype 0 (Clostridium difficile, UniProt P16154 1-2710)
Sequence (P16154 whole entry): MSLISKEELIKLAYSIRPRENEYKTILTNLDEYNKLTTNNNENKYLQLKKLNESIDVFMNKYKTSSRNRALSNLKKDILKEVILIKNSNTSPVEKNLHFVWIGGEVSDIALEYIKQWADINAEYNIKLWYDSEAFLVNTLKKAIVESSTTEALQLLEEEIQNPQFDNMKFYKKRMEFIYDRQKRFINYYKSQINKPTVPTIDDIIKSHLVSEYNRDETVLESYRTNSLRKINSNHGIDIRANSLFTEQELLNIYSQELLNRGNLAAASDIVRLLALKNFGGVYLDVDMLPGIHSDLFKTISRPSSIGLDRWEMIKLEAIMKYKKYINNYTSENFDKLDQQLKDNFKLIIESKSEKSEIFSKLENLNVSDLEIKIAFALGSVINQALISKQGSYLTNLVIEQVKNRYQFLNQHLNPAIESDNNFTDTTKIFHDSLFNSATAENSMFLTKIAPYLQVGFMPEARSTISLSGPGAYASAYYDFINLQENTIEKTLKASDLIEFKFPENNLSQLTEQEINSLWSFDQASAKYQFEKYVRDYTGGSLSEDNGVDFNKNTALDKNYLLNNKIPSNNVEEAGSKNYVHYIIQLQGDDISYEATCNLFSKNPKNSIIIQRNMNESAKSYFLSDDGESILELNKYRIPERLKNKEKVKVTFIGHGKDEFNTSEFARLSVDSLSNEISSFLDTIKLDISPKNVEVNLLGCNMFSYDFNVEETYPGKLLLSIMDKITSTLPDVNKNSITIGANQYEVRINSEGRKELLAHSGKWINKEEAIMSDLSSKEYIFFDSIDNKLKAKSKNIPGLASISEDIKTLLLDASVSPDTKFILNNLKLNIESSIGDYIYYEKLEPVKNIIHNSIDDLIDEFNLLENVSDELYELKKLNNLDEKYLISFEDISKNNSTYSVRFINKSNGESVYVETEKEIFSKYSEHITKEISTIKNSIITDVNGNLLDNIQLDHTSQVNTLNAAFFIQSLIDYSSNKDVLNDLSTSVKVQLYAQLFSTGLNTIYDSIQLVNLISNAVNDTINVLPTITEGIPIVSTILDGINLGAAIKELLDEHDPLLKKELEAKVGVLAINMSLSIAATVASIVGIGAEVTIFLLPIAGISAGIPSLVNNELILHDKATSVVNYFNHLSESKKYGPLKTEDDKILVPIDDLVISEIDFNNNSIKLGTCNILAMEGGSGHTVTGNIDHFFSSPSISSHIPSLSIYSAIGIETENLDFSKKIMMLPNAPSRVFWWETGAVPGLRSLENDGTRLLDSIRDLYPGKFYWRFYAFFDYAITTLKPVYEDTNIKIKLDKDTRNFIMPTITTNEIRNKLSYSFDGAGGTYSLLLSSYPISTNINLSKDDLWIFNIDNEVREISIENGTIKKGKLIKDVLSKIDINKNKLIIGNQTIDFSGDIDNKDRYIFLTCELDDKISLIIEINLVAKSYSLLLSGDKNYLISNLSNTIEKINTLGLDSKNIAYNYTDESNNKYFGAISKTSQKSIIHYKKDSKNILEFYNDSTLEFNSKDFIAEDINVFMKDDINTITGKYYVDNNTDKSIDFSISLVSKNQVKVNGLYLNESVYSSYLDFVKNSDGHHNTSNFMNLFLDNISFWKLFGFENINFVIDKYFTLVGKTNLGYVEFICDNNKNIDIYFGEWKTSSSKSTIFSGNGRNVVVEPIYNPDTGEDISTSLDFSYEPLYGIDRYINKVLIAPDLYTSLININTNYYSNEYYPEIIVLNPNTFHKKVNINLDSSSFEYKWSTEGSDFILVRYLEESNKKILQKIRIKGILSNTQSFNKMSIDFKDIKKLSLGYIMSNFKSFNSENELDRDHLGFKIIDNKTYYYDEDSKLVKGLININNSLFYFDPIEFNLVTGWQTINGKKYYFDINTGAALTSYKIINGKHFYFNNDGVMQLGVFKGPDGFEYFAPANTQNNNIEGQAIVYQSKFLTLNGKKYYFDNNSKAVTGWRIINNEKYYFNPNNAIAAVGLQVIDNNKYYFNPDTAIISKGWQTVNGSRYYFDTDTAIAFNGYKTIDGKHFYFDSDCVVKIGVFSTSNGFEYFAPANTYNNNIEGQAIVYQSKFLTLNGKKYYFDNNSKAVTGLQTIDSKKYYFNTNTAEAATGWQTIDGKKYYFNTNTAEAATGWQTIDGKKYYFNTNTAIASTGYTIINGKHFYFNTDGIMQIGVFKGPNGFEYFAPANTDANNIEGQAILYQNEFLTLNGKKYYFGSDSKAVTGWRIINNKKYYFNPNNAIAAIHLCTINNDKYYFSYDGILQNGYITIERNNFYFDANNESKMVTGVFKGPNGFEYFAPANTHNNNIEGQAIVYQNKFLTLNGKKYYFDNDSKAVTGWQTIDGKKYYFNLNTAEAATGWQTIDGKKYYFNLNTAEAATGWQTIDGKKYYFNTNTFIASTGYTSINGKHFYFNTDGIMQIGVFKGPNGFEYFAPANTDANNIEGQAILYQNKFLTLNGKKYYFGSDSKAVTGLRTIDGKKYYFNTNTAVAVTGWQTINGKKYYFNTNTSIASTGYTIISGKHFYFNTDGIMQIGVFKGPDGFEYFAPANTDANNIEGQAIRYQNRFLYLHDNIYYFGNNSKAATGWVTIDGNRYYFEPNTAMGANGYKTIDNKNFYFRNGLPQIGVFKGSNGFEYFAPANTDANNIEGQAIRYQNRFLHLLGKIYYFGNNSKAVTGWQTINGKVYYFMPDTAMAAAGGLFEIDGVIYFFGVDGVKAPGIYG
TEST SUMMARY: BLI (Octet Red96), antibody on Protein A sensor, toxin in solution
OBSERVABLE: koff
Record the result as number plus unit.

Request: Tell me koff reported for A3 antibody (antibody, V domains shown) VH: MQLLESGGGLVKPGGSLRLSCAASGFTFSNAWMSWVRQGPGKGLEWVGRIKSKTDGGTTDYAAPVKGRFSISRNDSNNTLFLQMNSLKTEDTAVYYCTTGPQIVVVAGATSRDQPNYYYYGLDVWGLGTTVTVSS VL: QSVLTQPPSASGTPGQRVTISCSGSSSNIGINTVNWYQQLPGTAPKLLIYKSNLRPSGVPDRFSGSKSGTSASLAISGLRSEDEADYYCAAWDDSLTGLYVFGTGTKVTVLG
Result: 7.77e-05 s⁻¹

Hey, just so you know, these numbers are from patent US20190153078A1.
